B1: glmS ribozyme (parent)
chain: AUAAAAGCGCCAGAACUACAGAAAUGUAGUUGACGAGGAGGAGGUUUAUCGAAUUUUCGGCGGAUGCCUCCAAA

- Variants of: B1
- experimentNotes: kcat; higher = faster cleavage; RNA array
- protocolConditions: with glucosamine-6-phosphate
This sample holds only a part of the variants without activity.
Answer each item with its documented log10 kcat.
Form field - Quantity: kcat; Unit: s⁻¹; Scale: log10

AUAAAAGCGCCUGAACUACAGAAAUGUAGUUGACGAGGAGGAGGUUUAUCGAAUUUGCGGCGGAUGCCUCCAAA [A12U U57G]
-3.53

Quick request: log10 kcat for each listed item, please.
1. AUAAAAGCGCCAGAACUACAGAAAUGUAGUUAACGAGGAGGAGGUUUAUCGAAUUUUCGGCGGAUGCCUGCAAA [G32A C70G]
2. AUAAAAGCGUCAGAACUACAGAAAUGUAGUUGACGAGGAGGAGGUUUAUCGAGUUUUCGGCGGAUGCCUCCAAA [C10U A53G]

[out]
1. -3.95
2. -4.56

Quick request: log10 kcat for each listed item, please.
1. AUAAAAGCGCCAGAACUACAGAAAUGUAGUUGACGAGGAGGAGGUUUAACGAAUGUUCGGCGGAUGCCUCCAAA [U49A U55G]
2. AUAAAAGCGCCAGAACUACAGAAAUGUAGUUGACGAGGAUGUGGUUUAUCGAAUUUUCGGCGGAUGCCUCCAAA [G40U A42U]

[out]
[-4.86, -3.94]

Quick request: log10 kcat for each listed item, please.
1. AUAAAAGCGCCAGAACUACAGAAAUGUAGUUGACGAGGAGGAGGUUUAUCGGAUCUUCGGCGGAUGCCUCCAAA [A52G U55C]
2. AUAAAAGCGCCAGAACUACAGAAAUGUAGAUGACGAGGAGGAGGUUUAUCGAAUUUUCGGCGGGUGCCUCCAAA [U30A A64G]
3. AUAAAAGCGCCAGAAGUACAGAAAUGUAGUUGACGAGGAGGAGGGUUAUCGAAUUUUCGGCGGAUGCCUCCAAA [C16G U45G]
4. AUAAAAGCGCCAGAACUACAGAAAUGUAGUUGACGAGGAGGAGGUGUAUCGAAUUUUCGGCGGAUUCCUCCAAA [U46G G66U]
5. AUAAAAGCGCCAGAACUACAGAAAUGUAGUUGACGAGGAGGAGGUUUAUCGAAUUUUCGGCGGAUGACGCCAAA [C67A U69G]
6. AUAAACGCGCCAGAACUACAGAAAUGUAGUUGACGAGGAGGAGGUUUAUCGAAUUUUCGGCGGAUGCCUCGAAA [A6C C71G]
7. AUAAAAGCGCCAGAACUACAGAAAUGUAGUUGACGAGGGGGAGGUAUAUCGAAUUUUCGGCGGAUGCCUCCAAA [A39G U46A]

[out]
-2.69
-2.18
-3.04
-3.12
-4.30
-4.92
-2.26

Quick request: log10 kcat for each listed item, please.
1. AUAAAAGCGCCAGAACUACAGAAAUGUAGUUGUCGAGGAGGGGGUUUAUCGAAUUUUCGGCGGAUGCCUCCAAA [A33U A42G]
2. AUAAAAGCGCCAGUACUACAGAAAUGUAGUUGACGAGGAGGAGGUUUAUCGAAUUUUCGGCGGAUCCCUCCAAA [A14U G66C]
3. AUAAAAGCGCCAGAACUACAGAAAUGUAGUUGACGAGGAGGAGGUUUAUCGAAUUUUCGGCCGAUGCCGCCAAA [G62C U69G]

[out]
-3.97
-3.86
-4.79
